For each record, write down the corresponding MIC.
test system: Acinetobacter baumannii; experiment: Antimicrobial activity against clinical isolate of Acinetobacter baumannii measured after 18 hrs by broth microdilution method; format: functional

// MIC lookup, key: C[C@@H]1[C@@H](O)[C@H](O)[C@@H](c2ccccc2)N1C 128 µg/mL

Now the same for COc1ccc([C@@H]2[C@@H](O)[C@H](O)[C@@H](C)N2C)c(F)c1 512 µg/mL

Now the same for Cc1ccc([C@@H]2[C@@H](O)[C@H](O)[C@@H](C)N2C)cc1 256 µg/mL

Now the same for COc1ccc([C@@H]2[C@@H](O)[C@H](O)[C@@H](C)N2C)cc1 > 1020 µg/mL

Now the same for COc1cc([C@@H]2[C@@H](O)[C@H](O)[C@@H](C)N2C)c(F)c(C)c1OC 512 µg/mL

Now the same for COc1ccc([C@@H]2[C@@H](O)[C@H](O)[C@@H](C)N2C)cc1OC > 1020 µg/mL

Now the same for COCc1ccc([C@@H]2[C@@H](O)[C@H](O)[C@@H](C)N2C)cc1 > 1020 µg/mL
